Record form. Attribute: selectivity ratio. Fill in for each entry.
Test: Therapeutic index, Ratio of TC50 for human HepG2 cells to IC50 for HBV-infected human HepG2 cells
Type: cell-based
Details: HepG2 cells (TC50) and HBV-infected HepG2 cells (IC50)
Answer field: number only, no words.

Query :: What value of selectivity ratio has been reported for the following compound? `C[C@H](Cn1cnc2c(N)ncnc21)OCP(=O)(OCOC(=O)OCc1ccccc1)OCOC(=O)OCc1ccccc1.O=C(O)/C=C/C(=O)O`
Result :: 12.7

Query :: What value of selectivity ratio has been reported for the following compound? C[C@H](Cn1cnc2c(N)ncnc21)OCP(=O)(O)O [TENOFOVIR ANHYDROUS]
Result :: 31.4

Query :: What value of selectivity ratio has been reported for the following compound? `Nc1ncnc2c1ncn2CCOCP(=O)(OCOC(=O)OCc1ccccc1)OCOC(=O)OCc1ccccc1.O=C(O)/C=C/C(=O)O`
Result :: 12.3

Query :: What value of selectivity ratio has been reported for the following compound? `Nc1ncnc2c1ncn2CCOCP(=O)(OCOC(=O)OC1CCCCC1)OCOC(=O)OC1CCCCC1.O=C(O)/C=C/C(=O)O`
Result :: 11.9

Query :: What value of selectivity ratio has been reported for the following compound? `Nc1ncnc2c1ncn2CCOCP(=O)(O)OCOC(=O)OCc1ccccc1.O=C(O)/C=C/C(=O)O`
Result :: 13.7

Query :: What value of selectivity ratio has been reported for the following compound? CC(C)OC(=O)OCOP(=O)(CO[C@H](C)Cn1cnc2c(N)ncnc21)OCOC(=O)OC(C)C.O=C(O)/C=C/C(=O)O [TENOFOVIR DISOPROXIL FUMARATE]
Result :: 10.8

Query :: What value of selectivity ratio has been reported for the following compound? `C[C@H](Cn1cnc2c(N)ncnc21)OCP(=O)(OCOC(=O)OC1CCCCC1)OCOC(=O)OC1CCCCC1.O=C(O)/C=C/C(=O)O`
Result :: 15.6

====

Record form. Attribute: pIC50. Fill in for each entry.
Tested on: Hepatitis B virus
Assay: Antiviral activity against Hepatitis B virus infected human HepG2 cells after 9 days by MTT assay
Assay type: functional, organism-based
Conditions: HepG2, 216 h
Note: pIC50 values are expressed as the negative base-10 logarithm of concentration in M.

Query :: Hi! What's the reported pIC50 for `Nc1ncnc2c1ncn2CCOCP(=O)(O)OCOC(=O)OCc1ccccc1.O=C(O)/C=C/C(=O)O` on Hepatitis B virus?
Result :: 4.37

Query :: Hi! What's the reported pIC50 for C[C@H](Cn1cnc2c(N)ncnc21)OCP(=O)(O)O [TENOFOVIR ANHYDROUS] on Hepatitis B virus?
Result :: 4.91

Query :: Hi! What's the reported pIC50 for `C[C@H](Cn1cnc2c(N)ncnc21)OCP(=O)(OCOC(=O)OC1CCCC1)OCOC(=O)OC1CCCC1.O=C(O)/C=C/C(=O)O` on Hepatitis B virus?
Result :: 5.14

Query :: Hi! What's the reported pIC50 for `C[C@H](Cn1cnc2c(N)ncnc21)OCP(=O)(OCOC(=O)OC1CCCCC1)OCOC(=O)OC1CCCCC1.O=C(O)/C=C/C(=O)O` on Hepatitis B virus?
Result :: 5.23

Query :: Hi! What's the reported pIC50 for `Nc1ncnc2c1ncn2CCOCP(=O)(OCOC(=O)OC1CCCCC1)OCOC(=O)OC1CCCCC1.O=C(O)/C=C/C(=O)O` on Hepatitis B virus?
Result :: 5.27

Query :: Hi! What's the reported pIC50 for `C[C@H](Cn1cnc2c(N)ncnc21)OCP(=O)(OCOC(=O)OCc1ccccc1)OCOC(=O)OCc1ccccc1.O=C(O)/C=C/C(=O)O` on Hepatitis B virus?
Result :: 5.26

Query :: Hi! What's the reported pIC50 for `Nc1ncnc2c1ncn2CCOCP(=O)(OCOC(=O)OC1CCCC1)OCOC(=O)OC1CCCC1.O=C(O)/C=C/C(=O)O` on Hepatitis B virus?
Result :: 5.61

Query :: Hi! What's the reported pIC50 for CC(C)OC(=O)OCOP(=O)(CO[C@H](C)Cn1cnc2c(N)ncnc21)OCOC(=O)OC(C)C.O=C(O)/C=C/C(=O)O [TENOFOVIR DISOPROXIL FUMARATE] on Hepatitis B virus?
Result :: 5.29

Query :: Hi! What's the reported pIC50 for `C=CCOC(=O)OCOP(=O)(COCCn1cnc2c(N)ncnc21)OCOC(=O)OCC=C.O=C(O)/C=C/C(=O)O` on Hepatitis B virus?
Result :: 5.09

Query :: Hi! What's the reported pIC50 for `C=CCOC(=O)OCOP(=O)(O)COCCn1cnc2c(N)ncnc21.O=C(O)/C=C/C(=O)O` on Hepatitis B virus?
Result :: 4.97

Query :: Hi! What's the reported pIC50 for Nc1ncnc2c1ncn2CCOCP(=O)(O)O [ADEFOVIR] on Hepatitis B virus?
Result :: 4.38

Query :: Hi! What's the reported pIC50 for `C=CCOC(=O)OCOP(=O)(CO[C@H](C)Cn1cnc2c(N)ncnc21)OCOC(=O)OCC=C.O=C(O)/C=C/C(=O)O` on Hepatitis B virus?
Result :: 5.10

Query :: Hi! What's the reported pIC50 for `Nc1ncnc2c1ncn2CCOCP(=O)(OCOC(=O)OCc1ccccc1)OCOC(=O)OCc1ccccc1.O=C(O)/C=C/C(=O)O` on Hepatitis B virus?
Result :: 5.67
